- Test system: K562 CRISPRi cells
- Procedure summary: Perturb-seq pooled growth measurement (sgRNA counts, growth phenotype γ, relative activity)
- Assay type: cell-based, human
- Study conditions: γ relative to perfectly matched sgRNA (_00) of the same gene, day 10
So I've got a bunch of substances here, and I need their relative_activity_day10 values.
One number for each entry.

Some entries whose results are on file:
# Substance, Assay value
measured = [
    ("DBR1_ + _137893744.23-P1P2_08 (guide GTTTGCAGTAGTCTACACCC; listed as DNA, chemistry not fully specified)", 0.1075),
    ("RAN_ + _131356438.23-P1P2_04 (guide GGCGGTCGCGGCGCTTAGGG; listed as DNA, chemistry not fully specified)", 0.5401),
    ("DBR1_ + _137893744.23-P1P2_01 (guide GATTGCAGGAGTCTACACCC; listed as DNA, chemistry not fully specified)", 1.119),
    ("RPL9_ + _39460483.23-P1P2_00 (guide GGATGTTTCTGTGCTCGTGG; listed as DNA, chemistry not fully specified)", 1),
    ("HSPA9_ −_137911079.23-P1P2_08 (guide GGAGCTGCTCGATGCGGTGG; listed as DNA, chemistry not fully specified)", 0.4688),
]

Please report relative_activity_day10 for every entry that follows.
1. COX11_ + _53045977.23-P1P2_04 (guide GGCTCTGGCGCCCTGGATGG; listed as DNA, chemistry not fully specified)
2. RPS15_ −_1438413.23-P1P2_07 (guide GACCAAAGCGGTCTCTTCTG; listed as DNA, chemistry not fully specified)

1. 0.8616
2. 0.8176
